IC50: recorded values
- system tested: GABA receptor-chloride ionophore complex (GR complex)
- protocol: [35S]TBPS binding modulation assay
- condition label: read-out: IC50, inhibition of [35S]-TBPS binding, No GABA; washed synaptoneurosomes, no GABA added
endpoint name: IC50

C[C@]12CC[C@@H](O)C[C@@H]1CC[C@@H]1[C@@H]2CC[C@]2(C)[C@@H](O)CC[C@@H]12 : 15 µM
C[C@]12CC[C@@H](O)C[C@@H]1CC[C@H]1[C@@H]3CC[C@H](C(=O)CO)[C@@]3(C)CC(=O)[C@@H]12 : > 100 µM
CC(=O)[C@H]1CC[C@H]2[C@@H]3CCC4=CC(=O)CC[C@]4(C)[C@H]3CC[C@]12C [PROGESTERONE, reference compound] : > 100 µM
CC(=O)[C@H]1CC[C@H]2[C@@H]3CC[C@H]4C[C@H](O)CC[C@]4(C)[C@H]3CC[C@]12C [Example 3α-OH-DHP, 3α-hydroxy-5α-pregnan-20-one] : 0.23 µM
C[C@]12CCC(=O)C[C@@H]1CC[C@@H]1[C@@H]2CC[C@]2(C)[C@@H](O)CC[C@@H]12 [5α-ANDROSTAN-17β-OL-3-ONE, 5α-ANDROSTAN-17β-OL-3- ONE, reference compound] : > 100 µM
CC(=O)[C@H]1CC[C@H]2[C@@H]3CC[C@H]4C[C@H](O)CC[C@]4(C)[C@H]3C(=O)C[C@]12C [alphaxalone, 5α-PREGNAN-3α-OL-11,20-DIONE, reference compound] : 11 µM
C[C@H](O)[C@H]1CC[C@H]2[C@@H]3CC[C@H]4C[C@H](O)CC[C@]4(C)[C@H]3CC[C@]12C : 0.359 µM

Just for reference, patent US5232917A is where these values come from.
